Answer each item with its documented IC50.
target: human CXCR4 (Homo sapiens); construct: using CXCR4 positive Jurkat human T-cell leukemia cells; endogenous in cells; host or cells: Jurkat human T-cell leukemia cells; experiment: Competitive binding assay to human CXCR4, Jurkat cells, [125I]FC131 radioligand; details: Table 1b; 18F-labeling precursors; Jurkat cells, [^125I]FC-131; read-out: IC50 [nM] to hCXCR4
Non-standard residues stand in square brackets, D forms with d. Residues, ends and D or L forms follow the SMILES beside them. Groups on a side chain read outwards from the residue. *: point of attachment. X3 = C[N+](C)(Cc1cn([C@@H](CCCNC(=N)N)C(=O)*)nn1)C[B-](F)(F)F; X2 = C[N+](C)(Cc1cn([C@@H](CCCCN)C(=O)*)nn1)C[B-](F)(F)F; X5 = CC(C)[C@H](C(=O)*)n1cc(C[N+](C)(C)C[B-](F)(F)F)nn1; X4 = C[N+](C)(Cc1cn(-c2ccc(C(=O)*)cc2)nn1)C[B-](F)(F)F; dTyr(3-I) = N[C@H](Cc1ccc(O)c(I)c1)C(=O)O; 2Nal = N[C@@H](Cc1ccc2ccccc2c1)C(=O)O; dNMeOrn = CN[C@H](CCCN)C(=O)O; 4Abz = Nc1ccc(C(=O)O)cc1
Kindly provide the numeric value in nM only, without the unit symbol.

Provide measured IC50 value, entry: CN1C(=O)[C@@H](Cc2ccc(O)c(I)c2)NC(=O)CNC(=O)[C@H](Cc2ccc3ccccc3c2)NC(=O)[C@H](CCCNC(=N)N)NC(=O)[C@H]1CCCNC(=O)c1ccc(NC(=O)CNC(=O)[C@H](CCCCN)n2cc(C[N+](C)(C)C[B-](F)(F)F)nn2)cc1 [F4] (cyclo([2Nal]G[dTyr(3-I)][dNMeOrn]([4Abz-Gly-X2])R))
3.8

Provide measured IC50 value, entry: CN1C(=O)[C@@H](Cc2ccc(O)c(I)c2)NC(=O)CNC(=O)[C@H](Cc2ccc3ccccc3c2)NC(=O)[C@H](CCCNC(=N)N)NC(=O)[C@H]1CCCNC(=O)c1ccc(-n2cc(C[N+](C)(C)C[B-](F)(F)F)nn2)cc1 [F1] (cyclo([2Nal]G[dTyr(3-I)][dNMeOrn](X4)R))
134

Provide measured IC50 value, entry: CC(C)[C@H](C(=O)NCC(=O)Nc1ccc(C(=O)NCCC[C@@H]2C(=O)N[C@@H](CCCNC(=N)N)C(=O)N[C@@H](Cc3ccc4ccccc4c3)C(=O)NCC(=O)N[C@H](Cc3ccc(O)c(I)c3)C(=O)N2C)cc1)n1cc(C[N+](C)(C)C[B-](F)(F)F)nn1 [F2] (cyclo([2Nal]G[dTyr(3-I)][dNMeOrn]([4Abz-Gly-X5])R))
65.2

Provide measured IC50 value, entry: CN1C(=O)[C@@H](Cc2ccc(O)cc2)NC(=O)CNC(=O)[C@H](Cc2ccc3ccccc3c2)NC(=O)[C@H](CCCNC(=N)N)NC(=O)[C@H]1CCCNC(=O)c1ccc(NC(=O)CNC(=O)[C@H](CCCNC(=N)N)n2cc(C[N+](C)(C)C[B-](F)(F)F)nn2)cc1 [F3b] (cyclo([2Nal]G[dY][dNMeOrn]([4Abz-Gly-X3])R))
2.4

---

target: human CXCR4 (Homo sapiens, UniProt P61073); construct: using CXCR4 positive Jurkat human T-cell leukemia cells; endogenous in cells; host or cells: Jurkat human T-cell leukemia cells; experiment: Competitive binding assay to human CXCR4, Jurkat cells, [125I]FC131 radioligand; details: Table 1d; orn side chain modifications; read-out: IC50 [nM] to hCXCR4
Sequence (P61073 whole entry): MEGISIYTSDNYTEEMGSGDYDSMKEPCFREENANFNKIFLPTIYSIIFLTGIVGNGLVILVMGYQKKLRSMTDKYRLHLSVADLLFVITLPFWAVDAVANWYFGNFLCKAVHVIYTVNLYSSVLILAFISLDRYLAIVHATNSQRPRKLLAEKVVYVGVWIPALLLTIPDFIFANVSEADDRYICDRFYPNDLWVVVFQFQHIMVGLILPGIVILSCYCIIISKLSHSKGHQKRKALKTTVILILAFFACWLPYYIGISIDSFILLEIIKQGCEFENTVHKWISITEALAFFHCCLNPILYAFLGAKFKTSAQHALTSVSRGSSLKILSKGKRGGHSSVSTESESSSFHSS
Non-standard residues stand in square brackets, D forms with d. Residues, ends and D or L forms follow the SMILES beside them. *: point of attachment. X1 = OCC1O[C@H](*)C(O)C(O)[C@H]1O; pS = N[C@@H](COP(=O)(O)O)C(=O)O; Mercaptoacetyl = O=C(CS)*; 4Abz = Nc1ccc(C(=O)O)cc1; X6 = CC(=O)c1ccc(N*)cc1; Dap = NC[C@H](N)C(=O)O
Strictly below 20 nM in IC50: True. Otherwise: False.

Given C[C@@H](NC(=O)[C@@H](CCCNC(=N)N)NC(=O)[C@H](CO)NC(=O)[C@H](COP(=O)(O)O)NC(=O)[C@H](CO[C@H]1OC(CO)[C@H](O)C(O)C1O)NC(=O)CS)C(=O)Nc1ccc(C(=O)O)cc1 (some centres unmarked) [T4] (Mercaptoacetyl-S(X1)[pS]S[dR][dA][4Abz]-OH) , is recorded IC50 strictly lower than 20 nM?
False

Given C[C@@H](NC(=O)[C@@H](CCCNC(=N)N)NC(=O)[C@H](CN)NC(=O)[C@H](CN)NC(=O)[C@H](CN)NC(=O)CS)C(=O)Nc1ccc(C(=O)O)cc1 [T3] (Mercaptoacetyl-[Dap][Dap][Dap][dR][dA][4Abz]-OH) , is recorded IC50 strictly lower than 20 nM?
True

Given CC(=O)c1ccc(NC(=O)[C@@H](C)NC(=O)[C@@H](CCCNC(=N)N)NC(=O)[C@@H](CNC(=O)CO/N=C\c2ccc(F)cc2)NC(=O)CCS[C@H]2OC(CO)[C@@H](O[C@@H]3OC(CO)[C@@H](O)C(O)C3O)C(O)C2O)cc1 (some centres unmarked) , is recorded IC50 strictly lower than 20 nM?
True

Given CC(=O)c1ccc(NC(=O)[C@@H](C)NC(=O)[C@@H](CCCNC(=N)N)NC(=O)[C@@H](CO)NC(=O)[C@@H](CO)NC(=O)[C@@H](CO)NC(=O)CS)cc1 [T1] (Mercaptoacetyl-[dS][dS][dS][dR][dA]-X6) , is recorded IC50 strictly lower than 20 nM?
False

Given C[C@@H](NC(=O)[C@@H](CCCNC(=N)N)NC(=O)[C@H](CC(=O)O)NC(=O)[C@H](CC(=O)O)NC(=O)[C@H](CC(=O)O)NC(=O)CS)C(=O)Nc1ccc(C(=O)O)cc1 [T2] (Mercaptoacetyl-DDD[dR][dA][4Abz]-OH) , is recorded IC50 strictly lower than 20 nM?
False

The origin of these recorded values is patent US11639373B2.
